- Test system: Escherichia coli TOP10
- METHOD_DESCRIPTION: shrunken log2 fold change of peptide-encoding DNA abundance (4.5 h post-induction vs induction); higher = less antimicrobial activity (less host growth inhibition)
- TEST_CONTEXT: time post-induction: 4.5 h; library: site-saturation at positions 5, 18, 19, 20
REPORTED_PROPERTY: shrunken log2 fold change

{"columns": ["SEQ", "EXPERIMENTAL_RESULT"],
 "data": [
  ["RRIRARPPRLPRPRPRPLPLPRP", 0.186],
  ["RRIRIRPPRLPRPRPRPPMPPRP", -0.0926],
  ["RRIRRRPPRLPRPRPRPEIDPRP", -0.00263],
  ["RRIRQRPPRLPRPRPRPCDVPRP", -0.15],
  ["RRIRARPPRLPRPRPRPMRLPRP", 1.29],
  ["RRIRCRPPRLPRPRPRPMDEPRP", 0.348],
  ["RRIRQRPPRLPRPRPRPWREPRP", -0.0373],
  ["RRIRVRPPRLPRPRPRPDEMPRP", 0.0261],
  ["RRIRERPPRLPRPRPRPKWTPRP", 0.0657],
  ["RRIRCRPPRLPRPRPRPDNGPRP", -0.0856],
  ["RRIRGRPPRLPRPRPRPLYGPRP", -0.105],
  ["RRIRRRPPRLPRPRPRPLSGPRP", 0.379],
  ["RRIRMRPPRLPRPRPRPYWYPRP", -0.0684],
  ["RRIRYRPPRLPRPRPRPADFPRP", -0.0123],
  ["RRIRMRPPRLPRPRPRPCICPRP", -0.0505]
]}

* * *

- Test system: Escherichia coli TOP10;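 note: peptides expressed intracellularly from a pBAD plasmid library in pooled LB shake-flask culture, induced with 0.3% L-arabinose, DNA abundance read by NGS, three biological replicates, DESeq2 with apeglm shrinkage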
- METHOD_DESCRIPTION: shrunken log2 fold change of peptide-encoding DNA abundance (4.5 h post-induction vs induction); higher = less antimicrobial activity (less host growth inhibition)
- TEST_CONTEXT: time post-induction: 4.5 h; library: site-saturation at positions 5, 18, 19, 20
Binned shrunken log2 fold change; ranges: band 1: < -0.05; band 2: ≥ -0.05 and < 0.2; band 3: ≥ 0.2

{"columns": ["SEQ", "ASSIGNED_CLASS"],
 "data": [
  ["RRIRLRPPRLPRPRPRPPQEPRP", "band 2"],
  ["RRIRYRPPRLPRPRPRPSVFPRP", "band 1"],
  ["RRIRYRPPRLPRPRPRPHHPPRP", "band 1"],
  ["RRIRSRPPRLPRPRPRPAGEPRP", "band 2"],
  ["RRIRLRPPRLPRPRPRPAGIPRP", "band 2"],
  ["RRIRKRPPRLPRPRPRPPWAPRP", "band 3"],
  ["RRIRFRPPRLPRPRPRPWDLPRP", "band 3"],
  ["RRIRMRPPRLPRPRPRPSLSPRP", "band 3"],
  ["RRIRKRPPRLPRPRPRPGFMPRP", "band 2"],
  ["RRIRIRPPRLPRPRPRPCIHPRP", "band 1"],
  ["RRIRCRPPRLPRPRPRPKKIPRP", "band 2"],
  ["RRIRFRPPRLPRPRPRPFSRPRP", "band 2"],
  ["RRIRSRPPRLPRPRPRPCIFPRP", "band 1"],
  ["RRIRPRPPRLPRPRPRPDKHPRP", "band 1"],
  ["RRIRQRPPRLPRPRPRPVELPRP", "band 2"],
  ["RRIRIRPPRLPRPRPRPFQGPRP", "band 2"],
  ["RRIRYRPPRLPRPRPRPTWIPRP", "band 1"],
  ["RRIRPRPPRLPRPRPRPCRVPRP", "band 1"],
  ["RRIRRRPPRLPRPRPRPGSGPRP", "band 3"],
  ["RRIRMRPPRLPRPRPRPDWAPRP", "band 3"],
  ["RRIRTRPPRLPRPRPRPYIDPRP", "band 1"],
  ["RRIRFRPPRLPRPRPRPLHAPRP", "band 2"],
  ["RRIRLRPPRLPRPRPRPPTLPRP", "band 3"],
  ["RRIRIRPPRLPRPRPRPGKPPRP", "band 3"],
  ["RRIRPRPPRLPRPRPRPHWAPRP", "band 1"],
  ["RRIRIRPPRLPRPRPRPPRAPRP", "band 3"],
  ["RRIRSRPPRLPRPRPRPYKTPRP", "band 2"],
  ["RRIRFRPPRLPRPRPRPSWFPRP", "band 1"],
  ["RRIRFRPPRLPRPRPRPAWHPRP", "band 3"],
  ["RRIRNRPPRLPRPRPRPTPEPRP", "band 2"],
  ["RRIRERPPRLPRPRPRPNKAPRP", "band 2"],
  ["RRIRPRPPRLPRPRPRPHYSPRP", "band 1"],
  ["RRIRARPPRLPRPRPRPTTLPRP", "band 2"],
  ["RRIRSRPPRLPRPRPRPTPRPRP", "band 3"],
  ["RRIRRRPPRLPRPRPRPEISPRP", "band 2"],
  ["RRIRDRPPRLPRPRPRPAFGPRP", "band 3"],
  ["RRIRFRPPRLPRPRPRPIAFPRP", "band 2"],
  ["RRIRSRPPRLPRPRPRPFSPPRP", "band 1"],
  ["RRIRMRPPRLPRPRPRPLHWPRP", "band 2"],
  ["RRIRARPPRLPRPRPRPHHGPRP", "band 1"],
  ["RRIRWRPPRLPRPRPRPWLTPRP", "band 1"],
  ["RRIRFRPPRLPRPRPRPFDIPRP", "band 1"],
  ["RRIRGRPPRLPRPRPRPQIGPRP", "band 3"],
  ["RRIRNRPPRLPRPRPRPTCLPRP", "band 1"],
  ["RRIRYRPPRLPRPRPRPYLAPRP", "band 1"],
  ["RRIRGRPPRLPRPRPRPGHIPRP", "band 3"],
  ["RRIRLRPPRLPRPRPRPDDWPRP", "band 2"],
  ["RRIRSRPPRLPRPRPRPPQVPRP", "band 2"],
  ["RRIRQRPPRLPRPRPRPSPWPRP", "band 3"],
  ["RRIRIRPPRLPRPRPRPQREPRP", "band 2"],
  ["RRIRERPPRLPRPRPRPEMYPRP", "band 2"],
  ["RRIRMRPPRLPRPRPRPFFPPRP", "band 2"],
  ["RRIRVRPPRLPRPRPRPGRMPRP", "band 2"],
  ["RRIRSRPPRLPRPRPRPPWKPRP", "band 1"],
  ["RRIRERPPRLPRPRPRPKWCPRP", "band 2"],
  ["RRIRGRPPRLPRPRPRPIESPRP", "band 2"],
  ["RRIRDRPPRLPRPRPRPSYCPRP", "band 2"],
  ["RRIRYRPPRLPRPRPRPMSEPRP", "band 2"],
  ["RRIRQRPPRLPRPRPRPTFPPRP", "band 1"],
  ["RRIRFRPPRLPRPRPRPRAWPRP", "band 3"],
  ["RRIRSRPPRLPRPRPRPCMMPRP", "band 2"],
  ["RRIRKRPPRLPRPRPRPPKPPRP", "band 3"],
  ["RRIRKRPPRLPRPRPRPFGAPRP", "band 3"]
]}
